Reference for the values: the COVID Moonshot data (paper PMC11187573)

- Target of assay: SARS-CoV-2 Main Protease (SARS-CoV-2) (UniProt P0DTD1)
Could you please mark rule met for values of IC50 below 50 µM and rule not met for values at or above it?

> print(dat)
                                    molecule  discrete.label
 1  Cc1ccncc1NC(=O)C(C)c1cccc(C#N)c1 (centres undefined)        rule met
 2  Cc1ccncc1NC(=O)Cc1cc(Cl)cc(-c2ccc(C3CC3(F)F)cc2)c1 (centres undefined)        rule met
 3              CS(=O)(=O)c1ccc(N2CCNCC2)cc1    rule not met
 4      O=C(Cc1cccc(Cl)c1)Nc1cnccc1-c1ccccc1        rule met
 5  Cc1ccc(NC2=C(c3ccccc3)C(=O)N(Cc3cccnc3)C2=O)c(C)c1    rule not met
 6            Cc1nnn(NC(=O)Cc2cccc(Cl)c2)c1C    rule not met
 7  Cc1cccc(C2CN(C(=O)CCl)Cc3ccccc32)c1 (centres undefined)        rule met
 8  O=C(CCl)N1CCC(c2nc(-c3cccnc3)nc3ccccc23)CC1        rule met
 9  COc1ccc2c(NC(=O)C3CCOc4ccc(Cl)cc43)noc2c1 (centres undefined)    rule not met
10  CC(NC(=O)CCl)c1cc(F)cc(Cl)c1 (centres undefined)        rule met
11     CC(C)(C)N1C=CN(C(C)(C)C)[CH]1[Au][Cl]        rule met
12                     O=C1Nc2c(Br)cccc2C1=O        rule met
13         COc1ccccc1OCCC(=O)Nc1cncc2ccccc12    rule not met
14        O=C1C(=O)N(Cc2ccc(Br)cc2)c2ccccc21        rule met
15  Cc1ccncc1NC(=O)C(C)c1cc(Cl)cc(OC2CC(=O)N2)c1 (centres undefined)    rule not met
16  Cc1ccncc1NC(=O)Cc1cc(C#N)cc(OC2CC(=O)N2)c1 (centres undefined)        rule met
17  Cc1cc(C(F)(F)F)nc2n[nH]c(NC(=O)C3CCOc4ccc(Cl)cc43)c12 (centres undefined)    rule not met
18       CCNc1ncc(C#N)cc1CN1CCN(C(=O)CCl)CC1        rule met
19  C=CC(=O)N(c1ccc(C(C)(C)C)cc1)C(C(=O)Nc1ccc2c(c1)OCO2)c1cccnc1 (centres undefined)    rule not met
20     CC(=O)N1CCN(CC(=O)Nc2cncc3ccccc23)CC1    rule not met
21  Cc1cc2c(c(O)c1-c1c(C)cc(O)c3c1C(=O)C=CC3=O)C(=O)C=CC2=O        rule met
22  C=CC(=O)N(c1ccc(C(C)(C)C)cc1)C(C(=O)NCC)c1cccnc1 (centres undefined)        rule met
23  N#C/C(C(=O)Nc1ccc(F)cc1)=C(/O)c1ccc(Cl)cc1        rule met
24     O=C(CCl)N1CCN(C(c2ccccc2)c2ccccc2)CC1        rule met
